Molecular target: cSRC(h) (Homo sapiens, UniProt P12931)
Sequence (P12931 whole entry): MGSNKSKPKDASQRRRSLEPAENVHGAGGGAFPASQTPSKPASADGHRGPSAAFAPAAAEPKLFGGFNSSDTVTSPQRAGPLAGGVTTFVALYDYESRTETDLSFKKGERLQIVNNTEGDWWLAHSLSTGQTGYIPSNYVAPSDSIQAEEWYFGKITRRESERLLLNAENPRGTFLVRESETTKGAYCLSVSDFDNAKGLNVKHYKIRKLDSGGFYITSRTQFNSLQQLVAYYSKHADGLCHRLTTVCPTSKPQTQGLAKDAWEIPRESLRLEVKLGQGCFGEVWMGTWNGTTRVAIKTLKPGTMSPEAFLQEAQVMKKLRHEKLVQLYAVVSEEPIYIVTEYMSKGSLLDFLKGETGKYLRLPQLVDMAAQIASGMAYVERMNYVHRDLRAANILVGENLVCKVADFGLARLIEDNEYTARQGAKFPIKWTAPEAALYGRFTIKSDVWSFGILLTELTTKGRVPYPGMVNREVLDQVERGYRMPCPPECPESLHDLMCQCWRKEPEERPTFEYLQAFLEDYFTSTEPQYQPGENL
Test: KinaseProfiler kinase assay
Format: biochemical
Conditions: read-out: IC50 (nM) cSrc (h)
MEASUREMENT_TYPE: IC50 (nM)

>>> obs_value("Cc1cc2c(F)c(Oc3nc(Nc4cc(C5CC5)[nH]n4)cc(N4CCN(C)CC4)n3)ccc2[nH]1")
3
>>> obs_value("C/C=C/c1cc(Nc2cc(N3CCN(CCO)CC3)nc(Oc3cc(F)c4[nH]c(C)cc4c3F)n2)n[nH]1")
4
>>> obs_value("C/C=C/c1cc(Nc2cc(N3CCNCC3)nc(Oc3ccc4[nH]c(C)cc4c3F)n2)n[nH]1")
2
>>> obs_value("Cc1cc2c(F)c(Oc3nc(Nc4cc(C5CC5)[nH]n4)cc(N4CCNCC4)n3)cc(F)c2[nH]1")
2
>>> obs_value("Cc1cc2c(F)c(Oc3nc(Nc4cc(C5CC5)[nH]n4)cc(N4CCNCC4)n3)ccc2[nH]1")
3
>>> obs_value("Cc1cc2c(F)c(Oc3nc(Nc4cc(C5CC5)[nH]n4)cc(N4CCN(CCO)CC4)n3)ccc2[nH]1")
2
